tested.system: SARS-CoV-2 spike S1 protein (SARS-CoV-2, UniProt P0DTC2 16-685)
quantity.name: kon (M⁻¹ s⁻¹)

• AB-009620 (antibody, V domains shown) VH: QITLKESGPTLVKPTQTLTLTCTFSGFSLSTSGVGVGWIRQPPGKALEWLALIYWDDDKRYSPSLKSRLTITKDTSKNQVVLTMTNMDPVDTATYYCAHHEVATVFDYWGQGTLVTVSS VL: QSALTQPASVSGSPGQSITISCTGTSSDVGAYNYVSWYQQHPGKAPKLMIYEVSNRPSGVSNRFSGSKSGNTASLTISGLQAEDEADYYCSSYTSSSTVFGGGTKLTVL = 28400

Numbers sourced from patent US20240327505A1.
